FYI, the data here is from a melting point compilation (Tetko et al.; mined from patent text by program, amines drawn as free bases though some values may be those of a salt).

I'd be grateful if you could share measured melting point for these entries.

// query melting point value for entry CCCOc1ccc(Cl)cc1C1=NC(=O)C2=NC=NC2=N1
277 to 279 °C

// query melting point value for entry CC(C)(C)OC(=O)CN1CC(c2cccs2)SCC(N)C1=O (stereo not given)
81 to 82 °C

// query melting point value for entry CC(=O)NCC(C)(C)c1ccc(C(=O)Nc2cn3cc(Cl)ccc3n2)cc1
220 to 222 °C

// query melting point value for entry O=c1[nH]c(=O)n(C2CC(OCc3ccccc3)C(CO)O2)cc1C(F)(F)F (stereo not given)
157 to 158 °C

// query melting point value for entry CCn1c(N)c(C(N)=O)c(=O)c2cnc(Nc3ccc(C(=O)N4CCN(C)CC4)cc3)nc21
281 °C

// query melting point value for entry CCOC(=O)c1[nH]c2ccc(C(O)(C(F)(F)F)C(F)(F)F)cc2c1-c1ccccc1
185 to 193 °C

// query melting point value for entry CN1CCc2c(-c3ccc([N+](=O)[O-])cc3)cc3c(c2C1)NC(=O)C3=O
> 300 °C

// query melting point value for entry COc1ccc(C(=O)c2c(F)cccc2F)c(Cl)c1Cl
94 to 96 °C

// query melting point value for entry N#Cc1ccc(CC(=O)Nc2cccc(C(=O)NCCC(=O)OCc3ccccc3)c2)cc1
98 to 99 °C

// query melting point value for entry N#CC(N)COc1ccc(Oc2ccccc2)cc1 (stereo not given)
76.7 °C

// query melting point value for entry CCOC(=O)C1CCc2cc(NS(C)(=O)=O)ccc2O1 (stereo not given)
111 °C

// query melting point value for entry CN(C)S(=O)(=O)Oc1c(Cl)cc(C(C)(C)C)cc1CNC(=O)OC(C)(C)C
122 to 123 °C

// query melting point value for entry CC(=O)c1cn(Cc2ccccc2F)c(=O)n(Cc2ccccc2F)c1=O
149 to 150 °C

// query melting point value for entry CCNC(=O)Oc1cccc(NC(=O)CC(C)=O)c1
138 °C

// query melting point value for entry CC(C)(C)OC(=O)N[C@@H](COS(C)(=O)=O)Cc1ccccc1
119 to 120 °C

// query melting point value for entry CCc1ccc([N+](=O)[O-])cc1CNC(C)=O
123 to 128 °C

// query melting point value for entry O=C(O)c1ccc2oc(-c3ccc(O)cc3)cc2c1
> 300 °C

// query melting point value for entry COC(=O)c1sc(C)cc1C
98 to 101 °C

// query melting point value for entry O=Cc1ccc(OCCBr)c2ccccc12
83 to 84 °C

// query melting point value for entry O=C1NC(=O)C(=Cc2cc(O)c(O)c(Cl)c2)S1
299 to 301 °C

// query melting point value for entry CCn1ncc2c1ncc1c(OCCCN(C)C)nc3cc(C)nn3c12
62 to 64 °C

// query melting point value for entry CCCCCCCCCCc1ccc(C(=O)O[C@@H]2CC[C@H](NC(=O)[C@H](OC)[C@H](O)[C@@H](O)[C@H](O)/C=C/C(C)(C)C)C(=O)NC2)cc1
60 to 64 °C

// query melting point value for entry CCCCCCCCCCCCCCCCCCCCCCOC(=O)C(C)O (stereo not given)
57 °C

// query melting point value for entry Cn1c(CC#N)ccc1C(=O)c1ccccc1
106 to 108 °C

// query melting point value for entry COC[C@@H](O)CN1CCC(c2ccc(-c3nc4c(N[C@H]5[C@@H](C(N)=O)[C@@H]6C=C[C@H]5C6)c(Cl)cnc4[nH]3)c(OC)c2)CC1
189 to 191 °C

// query melting point value for entry CCOC(=O)c1cc(SC)c(I)cc1N
59 to 60 °C

// query melting point value for entry CC(C)CN(C)c1cc2c(cc1C(F)(F)F)NC(=O)CC(c1cccc(-n3cncn3)c1)=N2
198 °C

// query melting point value for entry OC1CSC(Oc2ccc(-c3cc4ccccc4o3)nc2)C(O)C1O (stereo not given)
195 °C

// query melting point value for entry Cc1nc(N2CCN(C(=O)c3ccc(F)cc3)C2=O)sc1C(=O)NCc1ccccc1
130 to 132 °C

// query melting point value for entry Cc1cccc(C(=O)O)c1OC(=O)C=Cc1ccccc1
141 to 142 °C
